Values from PubChem BioAssay (NCI)

# growth per entry
# Test system: 786-0 renal
# test_method_notes: NCI-60 one-dose screen, 48 h (100 = growth as untreated, 0 = no growth, -100 = all killed)
# reported_conditions: 10 µM unless noted
This is part of a sample that, as a whole, favours compounds with a hit. Of some 83,000 tested, about 20% had one in any assay.
State the answer as a number, implicitly in %.

For orientation, consider the following solved cases.
Kindly state the measured growth obtained for C=C(C)[C@@H]1CC[C@]2(C(=O)N3CCNCC3)CC[C@]3(C)[C@H](CC[C@@H]4[C@@](C)(CCC(=O)N5CCNCC5)[C@H](C(=C)C)CC[C@]43C)[C@@H]12 with 786-0 renal.
80.2

Observed growth on 786-0 renal for CCOC(=O)CC[C@H](NC(=O)c1ccc(N(C)Cc2cnc3nc(N)nc(N)c3n2)c2ccccc12)C(=O)OCC , please.
27.5

Others:
State its growth on 786-0 renal: O=[N+]([O-])c1c(O)c(Cl)cc(Cl)c1Cl
99.6

Request: growth, test system 786-0 renal, entry Brc1ccc(Nc2nc(Nc3cnc4ccccc4c3)c3[nH]cnc3n2)cc1
49.4

Given the entry COc1ccc(-c2cn(Cc3cc4ccccc4s3)nn2)cc1OCCN1CCCCC1 , what growth was observed with 786-0 renal?
69.1

Under 786-0 renal: growth value of COC12C=C/C(=C(/C(=O)OCc3csc(SC)n3)C(=O)CCCCCCCCC3(OC)C=C/C(=C(/C(=O)OCc4cnc(SC)s4)C(=O)CCCCCCCC1)O3)O2 (centres undefined) ?
35.1

786-0 renal / growth / CC1=Nc2cnc(Nc3ccc(N4CCCCC4)cc3)nc2Nc2ccccc21 : value?
51.8

Requested read-out growth, target or system 786-0 renal, entry Cc1c(O)cc(-c2cnc(N/N=C/c3ccccc3)s2)c(O)c1C
117

What reported growth corresponds to Clc1ccc2nn3c4ccccc4c(OCCN4CCOCC4)nc3c2c1 on 786-0 renal?
80.9
